target: Metabotropic glutamate receptor 8 (Rattus norvegicus) (UniProt P70579); test: mGluR8 Gi/Go-coupled signaling modulation – cell-based, rat, thallium flux, HTS, primary screen (AID 488969); conditions: HEK293 rat mGluR8, GIRK (G protein-gated inwardly rectifying potassium channel) thallium flux, FluoZin2; at 10 µM; stronger effect = higher value; submaximal glutamate (EC20) added with thallium
Sequence (P70579 whole entry, looked up): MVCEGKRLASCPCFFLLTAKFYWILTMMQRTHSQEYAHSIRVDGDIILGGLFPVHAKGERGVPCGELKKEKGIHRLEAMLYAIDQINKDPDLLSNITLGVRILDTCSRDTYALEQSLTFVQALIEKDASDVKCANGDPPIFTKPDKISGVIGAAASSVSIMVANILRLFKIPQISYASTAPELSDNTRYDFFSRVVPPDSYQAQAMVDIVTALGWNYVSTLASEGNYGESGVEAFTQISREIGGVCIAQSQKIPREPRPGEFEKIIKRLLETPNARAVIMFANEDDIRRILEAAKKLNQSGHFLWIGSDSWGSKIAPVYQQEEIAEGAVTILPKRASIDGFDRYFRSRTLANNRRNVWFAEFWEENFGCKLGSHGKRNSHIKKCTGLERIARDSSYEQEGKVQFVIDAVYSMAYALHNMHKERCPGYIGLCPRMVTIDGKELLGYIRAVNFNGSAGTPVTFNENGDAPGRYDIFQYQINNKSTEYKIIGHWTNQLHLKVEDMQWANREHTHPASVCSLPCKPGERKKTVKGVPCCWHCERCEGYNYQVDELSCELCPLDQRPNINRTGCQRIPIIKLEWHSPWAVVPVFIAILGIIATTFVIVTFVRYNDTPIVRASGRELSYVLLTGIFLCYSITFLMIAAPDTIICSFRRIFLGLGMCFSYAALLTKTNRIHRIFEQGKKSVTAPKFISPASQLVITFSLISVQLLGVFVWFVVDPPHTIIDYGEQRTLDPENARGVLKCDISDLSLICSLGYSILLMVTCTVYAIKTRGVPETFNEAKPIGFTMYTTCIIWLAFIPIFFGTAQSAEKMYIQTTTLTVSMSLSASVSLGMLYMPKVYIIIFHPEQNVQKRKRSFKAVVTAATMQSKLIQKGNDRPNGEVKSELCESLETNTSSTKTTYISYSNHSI
Whole data set: some 110,000 compounds, median “z-score” near -0.1, cut for the highest 2% near 2. This excerpt belongs to a sample that is enriched for the highest values.
RECORDED_METRIC: z-score
// return just the number, without any unit appended

// query Quick one: z-score for CC(C#N)Sc1ncnc2sc3c(c12)CCC3 (stereo unspecified) ?
// result 0.00954

// query Lookup `COc1ccc(/C=N\NC(=O)/C(=C\Nc2nccc(C)n2)NC(=O)c2ccccc2)cc1`
// result -0.263

// query Now the same for `CCOC(=O)c1c(NS(=O)(=O)Cc2ccccc2)sc2c1CCCC2`
// result 17.1

// query What do you get for Clc1ccccc1CN(Cc1ccccc1)C(c1cccs1)c1nnnn1C1CCCC1 (stereo unspecified) ?
// result -0.135

// query Let us now turn to CC1(C)NC(=O)N(CC(O)CNC23CC4CC(CC(C4)C2)C3)C1=O (stereo unspecified)
// result 0.426

// query What do you get for `Cc1ccc(NC(=S)NNC(=O)c2ccccc2OC(F)F)cc1` ?
// result 0.966

// query Can you check `O=C(NNC(=S)Nc1ccc(F)cc1)c1ccccc1OC(F)F` next?
// result -0.00644

// query Same thing, different molecule: `O=C(NC(=S)Nc1ccccn1)c1cc(-c2ccccc2)nc2ccccc12`
// result 3.22

// query Check `O=C(NC(=S)Nc1ccccc1N1CCCC1)c1ccc(-c2cccc([N+](=O)[O-])c2)o1` too.
// result 5.71

// query Record: `Cc1cccc(-n2ncc3c(NCc4cccs4)ncnc32)c1`
// result -0.705

// query What about this molecule? `Cc1ccc(C(=O)OCC(=O)Nc2sc3c(c2C#N)CCCC3)cc1NC(=O)c1ccco1`
// result 2.03

// query Same read-out for `CC1(C)CC(=O)c2cnc(N3CCc4ccccc4C3)nc2C1` ?
// result 0.63

// query # iterate: `COC(=O)c1c(NC(=O)c2ccco2)sc2c1CCC2`
// result -0.464

// query Further, for `COc1ccc(C(=O)NNC(=S)NC(=O)c2cc(-c3ccccc3)nc3ccccc23)cc1` ?
// result 2.35

// query Same thing, different molecule: `Fc1cc(Br)ccc1NC(=S)NCCc1ccccc1`
// result 7.09

// query Note, next up: `Cc1ccc(C(=O)OCC(=O)Nc2sc3c(c2C#N)CCC3)cc1`
// result -0.0585

// query And for `CCN(c1ccccc1)S(=O)(=O)c1ccc(NC(=S)NC(=O)c2ccc(Br)o2)cc1` ?
// result 5.31

// query Now consider O=C(C1CCCO1)N1N=C(c2ccc(Br)cc2)CC1c1ccco1 (stereo unspecified) and answer again.
// result -0.195

// query Now the same for `Oc1ccc(Cl)cc1CNc1ccc(Br)cn1`
// result 0.33

// query Please do the same for CC(C/C=N/NC(=O)COc1cc(Cl)ccc1Cl)c1ccccc1 (stereo unspecified) as well.
// result -0.0205

// query Next record, please: `COc1ccccc1NC(=S)NCCc1ccccc1`
// result -0.188

// query What would you report for `CN1CCN(c2ccccc2NC(=O)c2ccc(-c3cccc([N+](=O)[O-])c3)o2)CC1` ?
// result -0.00188

// query Now give it for `CCOC(=O)c1c(NC(=O)c2ccccc2N(C)S(=O)(=O)c2ccccc2)sc2c1CCCC2` too.
// result -0.168

// query Consider next the molecule `COCC(=O)Nc1nnc(COc2ccc(Cl)cc2)s1` in the same way.
// result 0.279

// query Same question, CCOC(=O)C(NC(=O)NCc1ccc(OC)cc1)(OCC)C(F)(F)F (stereo unspecified) this time
// result -0.306

// query Ok, now `CC1CCN(c2ccccc2NC(=S)NC(=O)c2ccc(-c3cccc([N+](=O)[O-])c3)o2)CC1`
// result 0.191
